The measurements presented in this section are drawn from ChEMBL document CHEMBL1201862.

tested on: NCI-H23; test: NCI tumour cell line growth inhibition, 48 h
Activity calls are given as the source filed them. Cut-off read from the data, not from the text of the source: active = GI50 up to about 1.1 µM and inactive = higher.
observed.property: GI50

// below: answered compounds
- compound: "CC1(C)N=C(/C(Cl)=[N+](/[O-])C(=O)c2ccc(F)cc2)C(C)(C)N1O"
  tested.target: "NCI-H23"
  GI50: "17.1 µM (inactive)"
- compound: "CC(=O)OCc1ncccc1C(OC(C)=O)OC(C)=O"
  tested.target: "NCI-H23"
  GI50: "> 100 µM (inactive)"
- compound: "CCN(CCC#N)C(=O)Nc1ccccc1"
  tested.target: "NCI-H23"
  GI50: "> 100 µM (inactive)"
- compound: "CN(C)C(=O)c1nnsc1NN=O"
  tested.target: "NCI-H23"
  GI50: "> 100 µM (inactive)"
- compound: "CCOC(=O)CCC(C(=O)OCC)n1nnc2ccc(Nc3c(C)[n+]([O-])c4cc(F)c(OCC)cc4[n+]3[O-])cc21 (stereo not drawn)"
  tested.target: "NCI-H23"
  GI50: "73.3 µM (inactive)"
- compound: "Nc1ccc(Oc2ccc(C3(c4ccc(Oc5ccc(N)cc5)cc4)C4CC5C6CC7CC5C3C(C7)C6C4)cc2)cc1"
  tested.target: "NCI-H23"
  GI50: "26.3 µM (inactive)"

For the compound CN1c2ccccc2C2c3c(O)ccc(O)c3C=C([N+](=O)[O-])C21 (stereo not drawn) , report GI50.
1.69 µM (inactive)

For the compound COc1ccc2cc3n(c(=O)c2c1)CCc1c-3cc(OC)c(OC)c1OC , report GI50.
> 100 µM (inactive)

For the compound CC1(C)CCC(C)(C)c2cc(NC(=O)c3ccc(C(=O)O)cc3)ccc21 , report GI50.
23.2 µM (inactive)

For the compound CCNC(=O)Cc1nc2c(N)ncnc2n1C1OC(CO)C(O)C1O (stereo not drawn) , report GI50.
> 100 µM (inactive)

For the compound COC(=O)C1=C(O)C(C(=O)OC)[C@]2(O)[C@H](C(=O)OC)[C@H]1C[C@@H](c1ccc(Cl)cc1Cl)[C@H]2C(=O)OC (stereo partly drawn) , report GI50.
4.34 µM (inactive)

For the compound Cc1cc(-c2nc3cc(F)c(F)cc3s2)ccc1N , report GI50.
> 70.6 µM (inactive)

For the compound COC1OC(CBr)C(OC(c2ccccc2)(c2ccccc2)c2ccccc2)C(OC(c2ccccc2)(c2ccccc2)c2ccccc2)C1OC(c1ccccc1)(c1ccccc1)c1ccccc1 (stereo not drawn) , report GI50.
87.3 µM (inactive)

====

system: OVCAR-8; assay: NCI tumour cell line growth inhibition, 48 h
The source made the active and inactive calls. No stated cut-off is given here; in the data, active = GI50 up to about 1.1 µM and inactive = higher. Bridge positions count the residues as written; N and C are the ends. Where a SMILES comes first, the peptide text is derived from it. Peptide text beside a SMILES is read from it. [ ]: non-standard residue; d: D form. * marks the point of attachment. Aoe = N[C@@H](CCCCCC(=O)[C@@H]1CO1)C(=O)O; Cbz = O=C(OCc1ccccc1)*
Please reply with one of these outcomes: active, inactive

Consider the worked cases shown below.
- compound: "CNC(=O)C1CCCCNC(=O)CCC(NC(=O)OCc2ccccc2)C(=O)N1 (stereo not drawn) (Cbz-Glu-Lys-NHMe; lactam 1-2; configuration not given here)"
  group.label: "inactive"
- compound: "Cc1ccc(-n2cc(-c3ccc(Cl)cc3)c3c(N/N=C4\\SCC(=O)N4C)ncnc32)cc1"
  group.label: "inactive"
- compound: "COc1nc2[nH]ccc2c(=O)n1C"
  group.label: "inactive"
- compound: "COc1ccc(/C(=N\\NC(=O)NN)C(c2ccc(OC)cc2)C2(O)C(=O)Nc3c(Cl)cc(Cl)cc32)cc1 (stereo unspecified)"
  group.label: "inactive"
- compound: "N#Cc1ccccc1NC(=O)C(O)C(O)C(O)C(O)C=O (stereo unspecified)"
  group.label: "inactive"

What did the test return for O=C1N[C@@H](Cc2ccccc2)C(=O)N2CCC[C@@H]2C(=O)N[C@@H](CCCCCC(=O)[C@@H]2CO2)C(=O)N[C@H]1Cc1ccccc1 [TRAPOXIN B] (cyclo(FF[dP][Aoe])) ?
active
